Attribution: patent US20250019450A1

pKd: recorded values
# Test target: human IL-12Rβ1, Acro (BLI analyte) (human, UniProt P42701 24-545)
# Protocol: BLI (Octet), antibody on AHC tip
When answering, recall that pKd equals minus log10 of the concentration in mol/L, and write that number alone.

Sample records with pKd:
| Binder | pKd |
| --- | --- |
| DGL487 (bispecific antibody, V domains shown, 67B1 x 190B2) V domain 1: QVQLVESGGGLVQAGGSLRLSCAASARIFNSYAVAWFRQTPGKEREFVASISWSGGSTNYADSVKGRFTISRDNAKNTVFLQMNSLKPADTAVYYCAADRNYYPSVLGKYTYWGQGTQVTVEP V domain 2: QVQLQESGPGLVKPSQTLSLTCTVSGGSITTNYYYWSWIRQPPGKGLEWMGAIAYSGSTYYSPSLKSRTSISRDTSKNQFTLQLSSVTPEDTAVYYCASGINFYSNYPTLNEYDYWGQGTQVTVEP | 8.26 |
| DGL606 (bispecific antibody, V domains shown, 238B1 x 219B2) V domain 1: QLQLVESGGGLVQPGGSLRLSCAASGFTFSSYGMSWVRQAPGKGLEWVSYISAGGGTTTYVDFVKGRFTISRDNAKNMLYLQMNSLKPEDTAVYYCVHAADGSRGQGTQVTVEP V domain 2: QVQLEESGGGLVQAGGSLRLSCAASGRTFSSYVVGWFRQAPGKEREFVGRISWSGARTYYADSVEGRFTISRDNAKNTVYLQMNSLKPEDTAVYYCAADLKWEVLLSEHYEYWGQGTQVTVEP | 8.57 |
| DGL586 (bispecific antibody, V domains shown, 258B1 x 19B2) V domain 1: QVQLVESGGGLVQAGGSLRLSCAASGRTFSSYVMGWFRQAPGQEREFVAAIMRNGIMTYYADSVKGRFTISRDNAKNTVYLQMNTLKPDDTAVYYCAAASRVGVSISQSSSYTSWGQGTQVTVEP V domain 2: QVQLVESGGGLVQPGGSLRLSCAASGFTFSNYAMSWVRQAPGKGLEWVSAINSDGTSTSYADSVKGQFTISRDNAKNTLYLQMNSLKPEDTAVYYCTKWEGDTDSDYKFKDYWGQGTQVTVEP | 8.14 |

What does the data say about its pKd? Entry: DGL481 (bispecific antibody, V domains shown, 67B1 x 19B2) V domain 1: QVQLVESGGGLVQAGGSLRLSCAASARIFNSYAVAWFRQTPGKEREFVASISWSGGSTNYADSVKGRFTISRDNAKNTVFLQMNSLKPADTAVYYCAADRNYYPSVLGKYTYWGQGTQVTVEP V domain 2: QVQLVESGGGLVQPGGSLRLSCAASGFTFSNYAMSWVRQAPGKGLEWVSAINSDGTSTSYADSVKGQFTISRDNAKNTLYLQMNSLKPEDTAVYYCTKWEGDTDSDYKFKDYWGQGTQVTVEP
8.14

And for DGL568 (bispecific antibody, V domains shown, 233B1 x 13B2) V domain 1: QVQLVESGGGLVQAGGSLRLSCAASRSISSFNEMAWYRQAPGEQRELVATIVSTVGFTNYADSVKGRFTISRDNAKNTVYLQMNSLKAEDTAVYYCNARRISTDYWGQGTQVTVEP V domain 2: QVQLVESGGGLVRPGGSLRLSCAASGFTFSSNGMHWFRQAPGKGLEWVSSIGSGGTSIYYADSVKGRFTISRDNAKNTLYLQMNSLKSDDTAVYYCSKEVTGATRGQGTQVTVEP ?
8.75
